Test system: Mus musculus
assay: Anticonvulsant activity in ip dosed CF-1 albino mouse assessed as protection against subcutaneous pentylenetetrazol-induced seizures measured after 0.5 hrs
Type: functional
measurement-setup: read-out: MED
This section presents compounds with their documented minimal effective dose values.
measurement-kind: minimal effective dose (mg/kg)

> print(dat)
                                   compound  reported.measurement
1  O=C1CC(c2ccccc2Br)C(=O)N1CN1CCOCC1 (racemic)                   300
2  O=C1CC(c2ccccc2F)C(=O)N1CN1CCN(c2ncccn2)CC1 (racemic)                   300
3  O=C1CC(c2ccccc2Br)C(=O)N1CN1CCN(c2ncccn2)CC1 (racemic)                   100
4  CCC1(C)CC(=O)NC1=O (stereo not drawn) [ETHOSUXIMIDE]                   100
5  Cl.Cl.O=C1CC(c2ccccc2F)C(=O)N1CN1CCN(CCO)CC1 (racemic)                   300
6  O=C1CC(c2ccccc2F)C(=O)N1CN1CCOCC1 (racemic)                   300
7  Cl.Cl.O=C1CC(c2ccccc2Br)C(=O)N1CN1CCN(CCO)CC1 (racemic)                   100
8  O=C1CC(c2ccccc2F)C(=O)N1CN1CCN(Cc2ccccc2)CC1 (racemic)                   300

---

Measured TD50, listed per entry.
assay: Neurotoxicity in po dosed Sprague-Dawley rat assessed as motor impairment measured at time of peak effect by rotarod test
Format: toxicity, organism-based
measurement-setup: in vivo
measurement-kind: TD50 (mg/kg)

> print(dat)
                                   compound      u  prefix.operator  reported.measurement
1  O=C1CC(c2ccccc2Br)C(=O)N1CN1CCN(c2cccc(Cl)c2)CC1 (racemic)  mg/kg                =                   126
2  O=C1CC(c2ccccc2Br)C(=O)N1CN1CCN(c2ccc(F)cc2)CC1 (racemic)  mg/kg                =                  62.4
3  Cl.Cl.O=C1CC(c2ccccc2F)C(=O)N1CN1CCN(CCO)CC1 (racemic)  mg/kg                >                   500
4  O=C1NC(=O)C(c2ccccc2)(c2ccccc2)N1 [PHENYTOIN]  mg/kg                >                   100

---

assay: Neurotoxicity in ip dosed CF-1 albino mouse assessed as motor impairment by rotarod test
Format: toxicity, organism-based
measurement-setup: in vivo
measurement-kind: TD50

> print(dat)
                                   compound  reported.measurement
1  O=C1CC(c2ccccc2F)C(=O)N1CN1CCN(c2cccc(C(F)(F)F)c2)CC1 (racemic)           > 500 mg/kg
2                 CC[C@@H](C(N)=O)N1CCCC1=O           > 500 mg/kg
3  O=C1CC(c2ccccc2F)C(=O)N1CN1CCOCC1 (racemic)             253 mg/kg
4  O=C1CC(c2ccccc2Br)C(=O)N1CN1CCN(c2ccc(F)cc2)CC1 (racemic)             466 mg/kg
5  O=C1CC(c2ccccc2F)C(=O)N1CN1CCN(c2ccc(F)cc2)CC1 (racemic)             166 mg/kg

---

Listed compounds paired with reported minimal effective dose
Tested on: Mus musculus
assay: Anticonvulsant activity in ip dosed CF-1 albino mouse assessed as protection from maximal electric shock-induced seizures measured after 4 hrs
Type: functional
measurement-setup: read-out: MED
measurement-kind: minimal effective dose (mg/kg)

> print(dat)
                                   compound  reported.measurement
1  O=C1CC(c2ccccc2F)C(=O)N1CN1CCN(c2ncccn2)CC1 (racemic)                   100
2  O=C1CC(c2ccccc2Br)C(=O)N1CN1CCOCC1 (racemic)                   100
3  O=C1CC(c2ccccc2F)C(=O)N1CN1CCOCC1 (racemic)                   100
4  O=C1CC(c2ccccc2F)C(=O)N1CN1CCN(Cc2ccccc2)CC1 (racemic)                   300
5  O=C1CC(c2ccccc2F)C(=O)N1CN1CCN(c2ccc(Cl)cc2)CC1 (racemic)                   100
6  O=C1CC(c2ccccc2Br)C(=O)N1CN1CCN(c2ccc(Cl)cc2)CC1 (racemic)                   300
7  O=C1CC(c2ccccc2Br)C(=O)N1CN1CCN(c2ccccc2Cl)CC1 (racemic)                   300
8  O=C1CC(c2ccccc2Br)C(=O)N1CN1CCN(c2ccc(F)cc2)CC1 (racemic)                   100
9  O=C1CC(c2ccccc2F)C(=O)N1CN1CCN(c2ccccc2)CC1 (racemic)                   300

---

Tested on: Rattus norvegicus
assay: Anticonvulsant activity in Sprague-Dawley rat assessed as protection from maximum electric shock-induced seizures at 30 mg/kg, po measured after 4 hrs
Assay type: functional
Activity by entry:
measurement-kind: Activity (%)

> print(dat)
                                    molecule  reported.measurement
 1  O=C1NC(=O)C(c2ccccc2)(c2ccccc2)N1 [PHENYTOIN]                    75
 2  O=C1CC(c2ccccc2Br)C(=O)N1CN1CCOCC1 (racemic)                    25
 3  O=C1CC(c2ccccc2F)C(=O)N1CN1CCOCC1 (racemic)                    25
 4  O=C1CC(c2ccccc2Br)C(=O)N1CN1CCN(c2ccc(F)cc2)CC1 (racemic)                    75
 5  O=C1CC(c2ccccc2Br)C(=O)N1CN1CCN(c2cccc(Cl)c2)CC1 (racemic)                   100
 6  Cl.Cl.O=C1CC(c2ccccc2Br)C(=O)N1CN1CCN(CCO)CC1 (racemic)                    25
 7  O=C1CC(c2ccccc2F)C(=O)N1CN1CCN(c2ccc(F)cc2)CC1 (racemic)                    50
 8  O=C1CC(c2ccccc2F)C(=O)N1CN1CCN(c2cccc(C(F)(F)F)c2)CC1 (racemic)                    50
 9  O=C1CC(c2ccccc2F)C(=O)N1CN1CCN(c2ccc(Cl)cc2)CC1 (racemic)                    50
10  Cl.Cl.O=C1CC(c2ccccc2F)C(=O)N1CN1CCN(CCO)CC1 (racemic)                    25
11  O=C1CC(c2ccccc2Br)C(=O)N1CN1CCN(C2CCCCC2)CC1 (racemic)                    25

---

Tested on: Mus musculus
assay: Anticonvulsant activity in ip dosed CF-1 albino mouse assessed as protection from maximal electric shock-induced seizures measured after 4 hrs
Assay type: functional
measurement-setup: read-out: MED
measurement-kind: minimal effective dose (mg/kg)

> print(dat)
                                    molecule        measurement.kind  reported.measurement
 1  O=C1CC(c2ccccc2Br)C(=O)N1CN1CCN(c2cccc(C(F)(F)F)c2)CC1 (racemic)  minimal effective dose                   300
 2  O=C1CC(c2ccccc2Br)C(=O)N1CN1CCN(c2cccc(Cl)c2)CC1 (racemic)  minimal effective dose                   100
 3  O=C1CC(c2ccccc2F)C(=O)N1CN1CCN(c2ccc(F)cc2)CC1 (racemic)  minimal effective dose                    30
 4  O=C1CC(c2ccccc2Br)C(=O)N1CN1CCN(c2ncccn2)CC1 (racemic)  minimal effective dose                   100
 5  O=C1CC(c2ccccc2Br)C(=O)N1CN1CCN(c2ccccc2)CC1 (racemic)  minimal effective dose                   100
 6  Cl.Cl.O=C1CC(c2ccccc2Br)C(=O)N1CN1CCN(CCO)CC1 (racemic)  minimal effective dose                   100
 7         O=C1NC(=O)C(c2ccccc2)(c2ccccc2)N1  minimal effective dose                    30
 8  O=C1CC(c2ccccc2F)C(=O)N1CN1CCN(c2cccc(C(F)(F)F)c2)CC1 (racemic)  minimal effective dose                   100
 9  Cl.Cl.O=C1CC(c2ccccc2F)C(=O)N1CN1CCN(CCO)CC1 (racemic)  minimal effective dose                   100
10  O=C1CC(c2ccccc2Br)C(=O)N1CN1CCN(C2CCCCC2)CC1 (racemic)  minimal effective dose                   100
